Origin of measurements: patent US20230099344A1

# DC50 annotations
assay.system: IRAK-4 (Homo sapiens, UniProt Q9NWZ3)
Sequence (Q9NWZ3 1-460): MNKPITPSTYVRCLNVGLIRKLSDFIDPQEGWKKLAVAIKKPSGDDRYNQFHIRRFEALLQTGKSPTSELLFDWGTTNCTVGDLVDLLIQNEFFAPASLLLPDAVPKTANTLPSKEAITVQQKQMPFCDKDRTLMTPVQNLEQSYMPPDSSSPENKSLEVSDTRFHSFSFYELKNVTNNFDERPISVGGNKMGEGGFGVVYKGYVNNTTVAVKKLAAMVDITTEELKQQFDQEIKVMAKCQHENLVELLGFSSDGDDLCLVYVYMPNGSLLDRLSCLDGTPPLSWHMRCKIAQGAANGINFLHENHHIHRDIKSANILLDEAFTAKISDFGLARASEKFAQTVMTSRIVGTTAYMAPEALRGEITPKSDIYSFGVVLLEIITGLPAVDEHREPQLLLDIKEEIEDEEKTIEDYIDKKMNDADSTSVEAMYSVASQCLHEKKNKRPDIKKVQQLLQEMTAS
protocol.description: IRAK-4 ELISA, PBMC degradation
Assay type: cell-based
Design: endogenous in cells; host or cells: PBMC
experimental.conditions: treated overnight
Experimental: Reagents: Human IRAK-4 Matched Antibody Pair Kit (Abcam ab218182) and ELISA Accessory Pack (Abcam ab210905). Cell Treatment and Lysis: 1. OCI-Ly10: 200,000 cells are seeded at 1×10^6/ml in 96-well U-bottom plates 200 ul per well, treated with compound the same day. Incubate overnight. 2. PBMC: 800,000 cells are seeded at 2×10^6/ml in 96-well U-bottom deep-well plates, 400 ul per well, treated with compound the same day. […] Cell lysate is collected and analyzed by ELISA for IRAK-4 levels.

Form field: DC50 recorded for O=C1CCC(N2Cc3ccc(N4CCC(CN5CCC(n6cc7cc(NC(=O)c8cnn9cccnc89)c(OCC8CC8)cc7n6)CC5)CC4)cc3C2=O)C(=O)N1 (stereo not drawn) [Example 155] with IRAK-4 (Homo sapiens, UniProt Q9NWZ3) (enter value) < 1 nM

For the record O=C1CCC(N2Cc3cc(N4CC(N5CCC(N6Cc7cc(NC(=O)c8cnn9cccnc89)c(N8CCC(N9CCC9)CC8)cc7C6=O)CC5)C4)ccc3C2=O)C(=O)N1 (stereo not drawn) [Example 39] , what value of DC50 is listed for IRAK-4 (Homo sapiens, UniProt Q9NWZ3)? 5 to 10 nM

Fill in the recorded DC50 for this molecule, with IRAK-4 (Homo sapiens, UniProt Q9NWZ3) as test system: CCN([C@H]1CC[C@H](n2cc3cc(NC(=O)c4cnn5cccnc45)c(OCC4CC4)cc3n2)CC1)[C@H]1C[C@H](Oc2ccc3c(c2)C(=O)N(C2CCC(=O)NC2=O)C3=O)C1 (stereo partly drawn) [Example 373] < 1 nM
